Please go through the items and note down their growth.
Test system: SK-MEL-5 melanoma
Assay: NCI-60 one-dose screen, 48 h (100 = growth as untreated, 0 = no growth, -100 = all killed)
Conditions: 10 µM unless noted
Experimental: Growth inhibition of the SK-MEL-5 human tumor cell line is measured as a screen for anti-cancer activity. Cells are grown in 96 well plates and exposed to the test compound for 48 hours. Compounds are tested at a single concentration, which is 10^-5 M for most compounds. The reported endpoint is percent growth (GI% or GIPRCNT), where numbers from 0 - 100% represent growth inhibition, and numbers from -100% - 0 represent cell death. For example, a value of 40 represents 60% growth inhibition. […]
The panel holds about 83,000 compounds, 20% with a hit somewhere; the sample as a whole holds those more often.
Numbers only, in %.

// below: answered compounds
NC(N)=N/N=C(/c1ccccc1)c1ccc(N)cc1    101
Cc1[nH]c(-c2nc3ccccc3[nH]2)c(C)c1C(=O)NNc1ccc(Cl)cc1    98.2
Cn1cc(Nc2nccc(-c3ccc(N4CCCC4)c(C#N)c3)n2)cn1    38.8

Record growth for all entries; do not skip any.
1. COc1cc2c(cc1OC)-c1ccc3cc4c(cc3c1N(CCN(C)C)C2)OCO4
2. N#C/C(=C\c1ccc2c(c1)OCO2)n1nnc2ccccc21
3. CN(C)c1ccc(/C=N/NC(=O)COc2cc(=O)n(C)c3ccccc23)cc1
4. C=C1c2c(C)nn(-c3ccc(S(N)(=O)=O)cc3)c2N(C)C23CC1C1(C)c4c(C)nn(-c5ccc(S(N)(=O)=O)cc5)c4N(C)C(C)(CC12)C3 (stereo not given)
5. Cc1c(Cl)cccc1NS(=O)(=O)c1ccccc1

[-10.9, 20.4, 101, 45.5, 96.7]

Quick request: growth for each listed item, please.
1. COc1ccc(/C(C)=N/NS(=O)(=O)c2ccc(C)cc2)cc1OC
2. CNC(=O)NCC1OC(n2cnc3c(NC(=O)Nc4ccccc4)ncnc32)C2OC(C)(C)OC12 (stereo not given)

1: 103; 2: 86.2

* * *

Tested on: SK-MEL-28 melanoma
Experiment: NCI-60 one-dose screen, 48 h
Settings: 10 µM unless noted
About 83,000 compounds went through this panel and 20% of them were active in at least one assay; those are over-represented in the sample as a whole. The source made the active and inactive calls. How the source made its calls: active means growth percent below 10; inactive means the rest.
Valid outcomes are listed here; reply with one: 1 = active, 0 = inactive

Illustrative cases are given below, each with its answer.
C=C(C)[C@@H]1CC[C@]2(CO)CC[C@]3(C)[C@H](CC[C@@H]4[C@@]5(C)C=C(C#N)C(=O)C(C)(C)[C@@H]5CC[C@]43C)[C@@H]12    0
CC(=O)Nc1ccc(-c2cc3c(NCc4ccc(F)cc4)ncnc3s2)cc1    0
C/C(=N\NC(N)=S)c1nc2ccc(Cl)cc2[nH]1    0
Clc1ccc(-c2nnc(-c3ccco3)o2)cc1    0
COc1cc(NC(=O)c2cc(O)c(CC=C(C)C)c(O)c2)cc2c1O[C@]1(C)CC[C@@H](O)C(C)(C)[C@H]1C2    0
CN(CCCCCCCCNc1ccnc2ccccc12)Cc1ccc(-c2ccc(-c3ccc(C#N)cc3)s2)cc1    1
Cc1ccc(O)c(C(=O)c2ccccc2Cl)c1    0
Cn1c(NCCc2ccc(O)c(O)c2)nc2c1c(=O)n(Cc1ccc(Cl)cc1)c(=O)n2C    0

What is the recorded call for this molecule in the test? CCNCCNc1cc(-c2ccc(C#N)cc2)c(C#N)c2nc3ccccc3n12
1

Test call for this molecule, please: CCc1cc(Cc2cc(CC)cc(C(C)(C)C)c2O)c(O)c(C(C)(C)C)c1
0

// param item: COc1cccc(CCC2CCCN(c3cc(C)nc(N)n3)C2)c1 (stereo unspecified) ; yields the recorded call
0

Recorded call for O=C(CCCCCCCn1cc(-c2cccnc2)nn1)Nc1ccccc1-c1ccccc1 ?
0

State the result this test recorded for COc1ccc(/C=C2\C=C(c3ccccc3)N(CCc3ccccc3)C2=O)cc1OC .
0

Recorded test outcome, item COc1ccc(OC)c(/C=C2\COc3ccc(O)c(O)c3C2=O)c1
0

* * *

Test system: NCI/ADR-RES ovarian
Assay: NCI-60 one-dose screen, 48 h (100 = growth as untreated, 0 = no growth, -100 = all killed)
Details: 10 µM unless noted
About 83,000 compounds went through this panel and 20% of them were active in at least one assay; those are over-represented in the sample as a whole.
Output yes for records whose growth is lower than 60%, no for records at or above 60%.

Answer whether the compound COc1ccc(/C=C(\C#N)n2nnc3cc(F)c(F)cc32)c(OC)c1OC has growth strictly less than 60%
no

Determine whether this compound shows growth lower than 60% (ties excluded): COc1ccc(Nc2ncc(Br)c(NCCCNC(=O)C3CCC3)n2)cc1
yes

Here's an entry: Clc1ccc2c(NCCCN3CCN(c4nc(-n5ccnc5)nc5ccccc45)CC3)ccnc2c1 . Is its growth below 60%?
no

Decide: growth of Cc1cnc(Nc2ccc(OCCN3CCCC3)cc2)nc1NCc1ccco1 strictly below 60%?
no

is_below(growth, 60%) for O=C1CCC(N2C(=O)c3cccc(NCCCC4CCN(CCNC(=O)c5cc6c(o5)C(=O)c5ccccc5C6=O)CC4)c3C2=O)C(=O)N1 (centres undefined) ?
yes

Strictly below 60%: is that where growth of CC(C)n1nc(C#Cc2cccc(O)c2)c2c(N)ncnc21 sits?
yes

Does this compound meet the criterion growth < 60%? CCc1nc2ccccc2[nH]1
no

Decide: growth of COc1cc(/C=C/C(=O)c2ccc(Nc3nc(Nc4ccccc4)nc(Nc4ccc(Cl)cc4)n3)cc2)cc(OC)c1OC strictly below 60%?
yes

Problem: For the compound COc1cc2c(cc1OC)-c1ccc3cc4c(cc3c1N(CCCN(C)C)C2)OCO4 , is growth under 60%?
no

Answer whether the compound CN(C)CCN1C(=O)c2cccc3c(-c4ccc(-c5nc6c7ccccc7c7ccccc7c6[nH]5)cc4)ccc(c23)C1=O has growth strictly less than 60%
no

Dear colleague, could you confirm whether growth of CCn1nc(C#Cc2c(C)ccc3c(Nc4ccc(Cl)cc4)nccc23)c2c(N)ncnc21 falls below 60%? Thanks.
yes

Criterion: growth strictly below 60%. Is it met by Cc1c(C)c2c(c(C)c1NC(=O)/C=C\C(=O)O)CCC(C)(CCCC(C)CCCC(C)CCCC(C)C)O2 (centres undefined) ?
yes

Strictly below 60% in growth? N#C/C=C(\c1ccc([N+](=O)[O-])cc1)n1nnc2cc(Cl)c(Cl)cc21
yes

Confirm or reject: growth of Nc1ccc(S(=O)(=O)Nc2ccsc2-c2nc(-c3ccccc3)no2)cc1 lies strictly below 60%
yes

Dear reviewer, please state whether O=C(O)CC1Sc2ccccc2NC1=O (centres undefined) has growth strictly beneath 60%.
no

Criterion: growth strictly below 60%. Is it met by CCN(CC)N=Nc1nn(C(=O)Nc2ccc(Cc3ccccc3)cc2)c2ccc(Cl)cc12 ?
no

Is the reported growth for OC(CBr)c1ccnc2ccccc12 (centres undefined) strictly below 60%?
no

* * *

Tested on: SW-620 colon
Assay: NCI-60 one-dose screen, 48 h (100 = growth as untreated, 0 = no growth, -100 = all killed)
Conditions: 10 µM unless noted
About 83,000 compounds went through this panel and 20% of them were active in at least one assay; those are over-represented in the sample as a whole. Calls of active or inactive are those of the source. The calls were made as follows: active = growth percent below 10; inactive = the rest.
REPORTED PROPERTY: growth

# annotated cases, reported growth shown
CCCCCOC(=O)c1ccc(NC(=O)CNCC(C)C)cc1    98.5% (inactive)
Cc1cc(-c2noc(C(F)(F)F)n2)ccc1N1CCN(c2cc(C(=O)N(C)C)no2)CC1    84.7% (inactive)
O[C@H]1CO[C@H]2[C@@H]1OC[C@@H]2Oc1ccc(Nc2ccnc(Nc3ccc(O[C@H]4CO[C@H]5[C@@H]4OC[C@@H]5O)c(Cl)c3)n2)cc1Cl    19.5% (inactive)

Below are 2 molecules. Give each one its growth.
1. NC(=O)CC1(O)C=C(Br)C(=O)C(Br)=C1
2. Cc1cc(Cl)nc(N(CCCNc2ccnc3cc(Cl)ccc23)Cc2ccccn2)n1

-36.1% (active)
53.3% (inactive)

* * *

Would you kindly list growth for each of these compounds?
Tested on: CCRF-CEM leukemia
Assay: NCI-60 one-dose screen, 48 h (100 = growth as untreated, 0 = no growth, -100 = all killed)
Conditions: 10 µM unless noted
This is part of a sample that, as a whole, favours compounds with a hit. Of some 83,000 tested, about 20% had one in any assay. Active and inactive are the calls of the source. How the source made its calls: active means growth percent below 10; inactive means the rest.

In the examples that follow, each entry is paired with its recorded growth.
Cc1cc(-c2noc(C(F)(F)F)n2)ccc1N1CCN(c2cc(C(=O)N(C)C)no2)CC1    65.3% (inactive)
C=C1C(=O)O[C@H]2[C@H]1CC/C(COC(=O)NCc1ccc(Cn3c(=O)sn(CCCCl)c3=O)cc1)=C\CC[C@@]1(C)O[C@@H]21    -38% (active)
C=CC(=O)Nc1cccc(C)c1Nc1cc(-c2cccnc2Cc2c(C)c(OC)cc(OC)c2C)ncn1    -0.444% (active)
CC(=O)NCC(=O)Nc1ccc(-c2nnc3ccccn23)nc1.CC(=O)NCC(=O)Nc1ccc(-c2nnc3ccccn23)nc1.[Pt+2]    93.3% (inactive)
Cn1ccc(Cc2cnc(N)s2)n1    100% (inactive)

Report growth for each item below.
1. COc1ccc2cc(-c3ccc(C(=O)NN)c(C)n3)ccc2c1
2. COc1cc2oc(-c3cccc(C(=O)Nc4ccc(C#N)cc4)c3)cc(=O)c2c(O)c1OC
3. COc1ccc(OC)c(Nc2nc3nonc3nc2Nc2cccc(Br)c2)c1
4. CCOC(=O)c1ccc(-c2ccc3cc(OC)ccc3c2)nc1C
5. COc1ccc(/C=C2\COc3ccc(O)cc3C2=O)cc1OC

1. 91.3% (inactive)
2. 88.5% (inactive)
3. 12.4% (inactive)
4. 95.3% (inactive)
5. 3.05% (active)
